// data source = paper PMC12013189

Measured pKd of individual entries
Biological target: T1, FAT-Y925F phosphodeficient mutant (human, UniProt Q05397 904-1052, Y925F)
T1 sequence: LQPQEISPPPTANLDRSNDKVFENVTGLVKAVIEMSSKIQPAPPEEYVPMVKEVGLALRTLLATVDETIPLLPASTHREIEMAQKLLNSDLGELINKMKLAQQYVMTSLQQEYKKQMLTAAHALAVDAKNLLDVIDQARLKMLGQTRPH
Assay: FP
pKd: −log10 of the molar value. Ends that are not written are not given here.
endpoint_label: pKd

binder	endpoint_label	observed
MDDLDALLADLES (also: FITC label, position not given here) [paxillin LD1 peptide]	pKd	4.71
SNLSELDRLLLELNAVQHN (also: FITC label, position not given here) [paxillin LD2 peptide]	pKd	5.22
paxillin LD2/4 peptide (LD2 and LD4 motifs separated by a designed linker) (also: FITC label, position not given here) SNLSELDRLLLELNAVQHNGSGSGGSGGSGGSGGSGGSGGSGGSGGSATRELDELMASLSD	pKd	5.85
